# Tested target: abietadiene synthase (AgABS) (Abies grandis)
# Sequence (Q38710 71-868): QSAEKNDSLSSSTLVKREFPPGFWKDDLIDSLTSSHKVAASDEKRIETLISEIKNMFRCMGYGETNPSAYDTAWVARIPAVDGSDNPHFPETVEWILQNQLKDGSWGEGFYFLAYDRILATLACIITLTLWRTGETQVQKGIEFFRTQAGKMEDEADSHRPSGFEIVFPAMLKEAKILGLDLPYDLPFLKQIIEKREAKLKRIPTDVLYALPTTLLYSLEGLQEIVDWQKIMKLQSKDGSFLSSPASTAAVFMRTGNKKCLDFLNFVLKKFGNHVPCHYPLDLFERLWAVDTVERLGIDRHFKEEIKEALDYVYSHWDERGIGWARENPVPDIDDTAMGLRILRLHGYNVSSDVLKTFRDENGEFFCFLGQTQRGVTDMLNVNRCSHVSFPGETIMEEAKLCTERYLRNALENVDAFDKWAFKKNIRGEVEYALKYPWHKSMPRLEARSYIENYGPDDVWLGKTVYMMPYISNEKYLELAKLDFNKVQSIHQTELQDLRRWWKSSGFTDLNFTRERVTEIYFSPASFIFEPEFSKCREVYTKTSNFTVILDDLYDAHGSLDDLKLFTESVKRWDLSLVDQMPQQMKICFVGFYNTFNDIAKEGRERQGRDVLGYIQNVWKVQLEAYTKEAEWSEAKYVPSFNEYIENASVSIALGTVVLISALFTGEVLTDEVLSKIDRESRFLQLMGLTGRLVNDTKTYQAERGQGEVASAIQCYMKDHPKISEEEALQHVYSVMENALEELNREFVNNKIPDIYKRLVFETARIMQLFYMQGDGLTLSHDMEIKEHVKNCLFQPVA
Readout name: IC50 (nM)
Give the number; nM is assumed, so skip it.

Q. # return recorded IC50 for input C=CCN(C)CCCCCCCCCCCCCCCC(=O)OC
A. 250

Values from paper PMC3805035
